target: integrin αvβ3 (UniProt P06756); assay: ELISA
Sequence (P06756 31-1048, chain 1 of 2): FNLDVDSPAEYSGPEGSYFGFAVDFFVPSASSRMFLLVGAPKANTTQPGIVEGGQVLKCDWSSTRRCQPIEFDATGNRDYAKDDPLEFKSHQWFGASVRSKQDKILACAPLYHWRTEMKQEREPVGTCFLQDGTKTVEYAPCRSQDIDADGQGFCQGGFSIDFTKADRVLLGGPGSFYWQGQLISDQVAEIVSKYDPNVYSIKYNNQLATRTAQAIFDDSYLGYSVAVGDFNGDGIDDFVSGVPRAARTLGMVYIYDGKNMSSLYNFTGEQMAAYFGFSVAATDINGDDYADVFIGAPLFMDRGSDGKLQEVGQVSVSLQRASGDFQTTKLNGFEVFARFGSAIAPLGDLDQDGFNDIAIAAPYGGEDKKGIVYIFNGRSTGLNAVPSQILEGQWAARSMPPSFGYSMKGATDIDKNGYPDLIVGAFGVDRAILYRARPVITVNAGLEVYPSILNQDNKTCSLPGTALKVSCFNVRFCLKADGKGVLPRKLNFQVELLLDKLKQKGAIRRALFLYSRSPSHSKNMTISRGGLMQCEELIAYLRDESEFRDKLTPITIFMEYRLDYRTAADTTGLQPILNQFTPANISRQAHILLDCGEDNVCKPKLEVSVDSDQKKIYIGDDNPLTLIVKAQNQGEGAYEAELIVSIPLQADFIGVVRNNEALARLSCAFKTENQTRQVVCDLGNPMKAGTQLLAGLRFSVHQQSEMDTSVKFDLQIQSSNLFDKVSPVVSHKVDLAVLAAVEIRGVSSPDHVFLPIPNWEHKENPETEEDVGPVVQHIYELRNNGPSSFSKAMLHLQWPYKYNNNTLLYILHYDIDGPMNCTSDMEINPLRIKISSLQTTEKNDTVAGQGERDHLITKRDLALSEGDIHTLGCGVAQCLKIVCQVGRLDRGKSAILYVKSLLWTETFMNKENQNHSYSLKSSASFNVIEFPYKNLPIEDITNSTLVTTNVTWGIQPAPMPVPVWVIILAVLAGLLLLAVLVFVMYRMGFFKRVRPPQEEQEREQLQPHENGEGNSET
Sequence (P05106 27-788, chain 2 of 2, further chain): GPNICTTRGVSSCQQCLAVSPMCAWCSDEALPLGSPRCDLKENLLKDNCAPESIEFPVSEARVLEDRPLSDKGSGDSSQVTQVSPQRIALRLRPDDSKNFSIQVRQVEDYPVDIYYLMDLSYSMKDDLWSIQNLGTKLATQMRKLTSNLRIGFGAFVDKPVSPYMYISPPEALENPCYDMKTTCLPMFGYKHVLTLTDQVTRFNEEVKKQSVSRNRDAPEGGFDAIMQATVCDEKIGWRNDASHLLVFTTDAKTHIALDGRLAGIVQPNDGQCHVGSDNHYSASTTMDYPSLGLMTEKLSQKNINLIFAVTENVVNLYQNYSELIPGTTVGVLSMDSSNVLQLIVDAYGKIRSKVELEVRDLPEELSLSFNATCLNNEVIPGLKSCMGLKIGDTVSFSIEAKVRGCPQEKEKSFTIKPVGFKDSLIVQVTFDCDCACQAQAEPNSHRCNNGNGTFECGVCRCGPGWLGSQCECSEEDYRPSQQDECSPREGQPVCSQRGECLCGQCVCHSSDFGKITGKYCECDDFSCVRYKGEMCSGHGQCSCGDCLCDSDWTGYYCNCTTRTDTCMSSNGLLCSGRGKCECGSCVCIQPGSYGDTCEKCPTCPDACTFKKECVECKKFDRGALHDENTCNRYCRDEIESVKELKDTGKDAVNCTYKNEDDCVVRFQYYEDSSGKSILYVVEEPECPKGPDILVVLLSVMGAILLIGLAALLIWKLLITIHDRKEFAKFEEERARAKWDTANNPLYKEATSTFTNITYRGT
QUANTITY NAME: Kd (nM)
Please give a number only; it is taken to be in nM.

Recorded result, RGDFRWPR [GCPF peptide] , Kd: 2.41
